Where do these numbers come from? They come from paper PMC11091863.

- measurementTarget: Human PPAR-γ (Peroxisome Proliferator-Activated Receptor Gamma) (Homo sapiens)
- Sequence (P37231 whole entry): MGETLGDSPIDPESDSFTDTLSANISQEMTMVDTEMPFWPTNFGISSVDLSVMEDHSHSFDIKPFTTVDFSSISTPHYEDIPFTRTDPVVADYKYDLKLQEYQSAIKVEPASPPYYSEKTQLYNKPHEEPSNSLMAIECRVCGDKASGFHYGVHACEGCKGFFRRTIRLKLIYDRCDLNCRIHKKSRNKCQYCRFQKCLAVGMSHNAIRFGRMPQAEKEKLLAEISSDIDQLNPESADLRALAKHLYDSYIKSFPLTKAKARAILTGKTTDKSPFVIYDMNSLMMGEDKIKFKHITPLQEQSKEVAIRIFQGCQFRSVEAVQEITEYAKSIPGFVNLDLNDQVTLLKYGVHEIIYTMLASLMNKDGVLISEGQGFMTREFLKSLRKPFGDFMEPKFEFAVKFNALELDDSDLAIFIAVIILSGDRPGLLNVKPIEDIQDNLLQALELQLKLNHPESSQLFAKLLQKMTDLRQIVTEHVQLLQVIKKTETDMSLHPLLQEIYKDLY
- experimentalDetails: In vitro PPAR-γ transactivation assay
pIC50: −log10 of the molar value.
parameter: pIC50

INSERT INTO results (molecule, parameter, recordedvalue) VALUES
  ('N#Cc1cc2cc(S(N)(=O)=O)ccc2oc1=N [Compound 2]', 'pIC50', 4.90),
  ('CCOC(=O)c1ccc(NC(=O)c2cc3cc(S(N)(=O)=O)ccc3oc2=O)cc1 [Compound 9]', 'pIC50', 5.05);

###

- Test system: α-amylase
- experimentalDetails: In vitro α-amylase inhibitory assay
- testContext: 100 μg mL^−1
parameter: The α-amylase activity: Inhibitory percentage at 100 μg mL^−1 (%)

INSERT INTO results (compound, recordedvalue) VALUES
  ('NS(=O)(=O)c1ccc2oc(=O)c(C(=O)Nc3cccc(C(F)(F)F)c3)cc2c1', 96.2),
  ('CCOC(=O)c1ccc(NC(=O)c2cc3cc(S(N)(=O)=O)ccc3oc2=O)cc1', 96.6),
  ('N#CC(C#N)=C(N)c1cc2cc(S(N)(=O)=O)ccc2oc1=N', 96),
  ('CC(=O)c1cc2cc(S(N)(=O)=O)ccc2oc1=O [Compound 4, 3-Acetyl-2-oxo-2H-chromene-6-sulfonamide]', 94.2),
  ('N#Cc1cc2cc(S(N)(=O)=O)ccc2oc1=N', 96.1);
